Assay: Solubility in PBS
Assay type: physicochemical
Conditions: Solubility (uM)
# Solubility per entry
I only need the number, in µM, no unit after it.

molecule	unit.info	measurement
CC(=O)N1CCC[C@]12CC=CCCCC1(CCCC=CCCCOC(=O)N3CC[C@@](C(=O)N[C@@H](Cc4ccsc4)C(=O)N[C@@H](Cc4csc5ccccc45)C(=O)N[C@@H](CCC(N)=O)C(=O)N[C@@H](CCCCNC(=O)C45CC6CC(CC(C6)C4)C5)C(N)=O)(C3)NC(=O)[C@H](CC(N)=O)NC(=O)[C@H](Cc3ccccc3)NC(=O)[C@H](C)NC(=O)[C@H](C)NC(=O)[C@H](CC(=O)O)NC(=O)[C@H](CC(=O)O)NC1=O)NC(=O)[C@H](CC(C)(C)C)NC(=O)[C@H](CC(=O)O)NC2=O (some centres unmarked) [I-919]	µM	44

Attention now shifts to the item below.
Prompt: Output Solubility of CC[C@H](C)[C@@H]1NC(=O)[C@H](CC(=O)O)NC(=O)[C@]2(CC=CCCCC3(CCCC=CCCCCCC[C@@](C)(C(=O)N[C@@H](Cc4ccccc4)C(=O)N[C@@H](Cc4csc5ccccc45)C(=O)N[C@@H](CCC(N)=O)C(N)=O)NC(=O)[C@H](CCC(N)=O)NC(=O)[C@H](Cc4ccccc4)NC(=O)[C@H](CCC(N)=O)NC(=O)[C@H](C)NC(=O)[C@H](CCC(=O)O)NC(=O)[C@H](CC(=O)O)NC3=O)NC1=O)CCCN2C(C)=O (some centres unmarked) [I-663]
Response: 42
